Every entry's value here was drawn from patent US20260069689A1.

- Target system: SARS-COV-2 RBD-MMH (SARS-COV-2 RBD extracellular domain with C-terminal myc-myc-hexahistidine tag) (SARS-CoV-2)
Endpoint: t½ at pH 7.4 (min)
Give just the numeric value; min need not be written.

Return reported t½ at pH 7.4; argument: mAb14247 (antibody, V domains shown) VH: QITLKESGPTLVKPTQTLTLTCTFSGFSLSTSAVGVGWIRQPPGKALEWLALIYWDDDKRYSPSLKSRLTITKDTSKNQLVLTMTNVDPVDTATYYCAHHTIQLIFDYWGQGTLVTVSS VL: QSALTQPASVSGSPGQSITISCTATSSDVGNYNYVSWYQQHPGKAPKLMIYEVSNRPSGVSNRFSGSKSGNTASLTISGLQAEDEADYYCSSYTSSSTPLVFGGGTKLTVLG
7.3

Same lookup for mAb14280 (antibody, V domains shown) VH: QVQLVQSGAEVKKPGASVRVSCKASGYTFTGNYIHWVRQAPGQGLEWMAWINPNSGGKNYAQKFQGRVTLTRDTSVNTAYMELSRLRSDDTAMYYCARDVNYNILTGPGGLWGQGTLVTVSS VL: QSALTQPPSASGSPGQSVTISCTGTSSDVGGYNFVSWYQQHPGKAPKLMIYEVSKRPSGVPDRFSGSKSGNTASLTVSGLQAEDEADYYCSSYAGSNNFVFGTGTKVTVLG , please.
0.5

Cool, now mAb14232 (antibody, V domains shown) VH: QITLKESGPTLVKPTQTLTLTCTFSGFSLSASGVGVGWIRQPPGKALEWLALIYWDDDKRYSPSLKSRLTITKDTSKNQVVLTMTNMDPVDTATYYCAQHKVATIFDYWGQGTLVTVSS VL: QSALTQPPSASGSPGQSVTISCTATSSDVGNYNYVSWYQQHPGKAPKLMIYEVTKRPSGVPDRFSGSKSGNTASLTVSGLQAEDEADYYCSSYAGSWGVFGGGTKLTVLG
0.4
